Test: solvent given as SMILES
Conditions: in OCC(O)CO
REPORTED METRIC: absorption maximum (nm)

STRUCTURE STRING	NUMBER
CC(=O)c1ccc2ccc3c(NCCC(=O)NCCCCCCc4nc5c(=O)[nH]c(N)nc5n4[C@H]4C[C@H](O)[C@@H](CO)O4)ccc4ccc1c2c43	464
CN(C)c1cc(C#N)c(N(C)C)c(C#N)c1	403.39
CN(C)c1ccc(/C=C/c2nc3ccccc3s2)cc1	409
O=c1cc(C(F)(F)F)c2cc3c4c(c2o1)CCCN4CCC3	434
CN(C)c1c2ccccc2cc2ccccc12	393
C[n+]1ccnc(/C=C/c2ccc(N(c3ccccc3)c3ccc(/C=C/c4c[n+](C)ccn4)cc3)cc2)c1	500
